# System: HS 578T breast
# test_description: NCI tumour cell line growth inhibition, 48 h
measured_metric: TGI (µM)
Give the value, in units of µM, as a plain number.

Exercise: # input compound: "COc1cc(/C=C/C(=O)c2ccccc2)cc(OC)c1OC" ; wanted: its TGI
Solution: 39.8

Exercise: Please give the result for "O=C(CN(/C=C/C(=O)C(F)(F)F)c1ccc(Cl)cc1)c1ccc(F)cc1" too.
Solution: 9.71

* * *

# Test system: OVCAR-3 ovarian
# test_description: NCI tumour cell line growth inhibition, 48 h; in the data active = GI50 below about 0.43 µM; inactive = the rest
Write down the outcome that applies. Available outcomes: active, inactive

Exercise: What classification did "C=[CH][Sn]([CH]=C)([S]c1cccc2cccnc12)[S]c1cccc2cccnc12" end up with in this test?
Solution: active

Exercise: Please give the result for CC(C)N(C(C)C)[PH+]1O[PH+](N(C(C)C)C(C)C)O[PH+](N(C(C)C)C(C)C)O[PH+](N(C(C)C)C(C)C)O1.[C-]#[O+].[C-]#[O+].[C-]#[O+].[C-]#[O+].[C-]#[O+].[C-]#[O+].[C-]#[O+].[C-]#[O+].[Mo].[Mo] (centres undefined) too.
Solution: inactive

Exercise: Please give the result for "O=C(O)c1ccc(NCc2nc3cc(Cl)c(Cl)cc3[nH]2)cc1" too.
Solution: inactive

Exercise: Please give the result for "NCCCCCn1c2c(c3ccccc3c1=O)C(=O)c1ccccc1-2" too.
Solution: inactive

* * *

I'd appreciate it if you could supply TGI values for the items below.
# System: DLD-1 colon
# test_description: NCI tumour cell line growth inhibition, 48 h

Exercise: # input compound: "CCOC(=O)[C@H]1Nc2ccc(Cl)cc2[C@H]2CCC[C@@H]12" ; wanted: its TGI
Solution: > 100 µM

Exercise: Please give the result for "Cn1nc(-c2cccc(-c3nn(C)c(=NCCO)s3)n2)sc1=NCCO" too.
Solution: > 100 µM

Exercise: Please give the result for CN(C)CC1CC/C(=C\c2ccc(Cl)cc2)C1=O (centres undefined) too.
Solution: 12.5 µM

Exercise: Please give the result for COc1ccc(/C=C2\CCC(CN3CCOCC3)C2=O)cc1 (centres undefined) too.
Solution: 24.8 µM

Exercise: Please give the result for "Cn1cnc([N+](=O)[O-])c1Sc1nc2ccccc2s1" too.
Solution: 18.1 µM

Exercise: Please give the result for COc1ccc(OC)c(C#N)c1C#N (tested in a mixture with another compound) too.
Solution: > 100 µM

Exercise: Please give the result for "CCCCCCCCCCCCCC(=O)NCO" too.
Solution: > 100 µM

Exercise: Please give the result for CC1=CC2C(=O)N(c3ccccc3)C(=O)C2CC1n1[nH]c(=O)n(Cc2ccccc2)c1=O (centres undefined) too.
Solution: > 100 µM

Exercise: Please give the result for "CC(=O)Nc1ccc(C2C(C(=O)Nc3ccccc3)=C(C)NC(C)=C2C(=O)Nc2ccccc2)cc1" too.
Solution: > 100 µM

Exercise: Please give the result for "CC(=O)N/C=C/c1cc(O)ccc1O" too.
Solution: 48.2 µM

Exercise: Please give the result for CC(C)NC(C)C(C)c1ccccc1 (centres undefined) too.
Solution: > 100 µM

Exercise: Please give the result for O=C(NC(Cc1ccc(I)cc1)C(=O)O)c1cccc(Br)c1 (centres undefined) too.
Solution: > 100 µM

Exercise: Please give the result for COc1cc(C2Oc3cc(-c4oc5cc(O)cc(O)c5c(=O)c4O)ccc3OC2CO)ccc1O (centres undefined) too.
Solution: > 100 µM

Exercise: Please give the result for "CCOc1ccc(NC(=O)/C(=C\c2ccc(C)cc2)C(C)=O)cc1" too.
Solution: > 100 µM

* * *

# Tested on: A549 NSCLC
# test_description: NCI tumour cell line growth inhibition, 48 h
I'd appreciate it if you could supply TGI values for the items below.

Exercise: # input molecule: "COC[C@@H]1[C@H]2OC(C)(C)O[C@H]2C(=O)N1C(=O)c1ccc(OC)cc1" ; wanted: its TGI
Solution: > 100 µM

Exercise: Please give the result for "Cn1cnc([N+](=O)[O-])c1Sc1nc2ccccc2s1" too.
Solution: 22.8 µM

Exercise: Please give the result for CCOC(OC1=C(C#N)CCC1)C(C)[Se]c1ccccc1 (centres undefined) too.
Solution: > 100 µM

Exercise: Please give the result for "CCOC(CNc1nn2c(C)nnc2s1)OCC" too.
Solution: > 100 µM

Exercise: Please give the result for CC1OC(n2cc(Cl)c(=O)[nH]c2=O)C=C(OC(=O)c2ccccc2)C1=O (centres undefined) too.
Solution: > 100 µM

Exercise: Please give the result for O=C(c1ccccc1)c1ccc2cccc(OC3OC(CO)C(O)C(O)C3O)c2n1 (centres undefined) too.
Solution: > 100 µM

Exercise: Please give the result for "Cn1cc(-c2csc(-c3c[nH]c4ccccc34)n2)c2cnccc21" too.
Solution: 5.88 µM

Exercise: Please give the result for "O=C(Nc1ccc(Cl)cc1)Nc1ccc(Cl)c(C(F)(F)F)c1" too.
Solution: 15.8 µM

Exercise: Please give the result for "CCCCCCCCCCCC(=O)NCc1ccc(OC(=O)CCCCCCCCCCC)c(OC)c1" too.
Solution: > 100 µM

Exercise: Please give the result for "O=S(=O)(O)c1cc(S(=O)(=O)O)c2c(Nc3ccnc4ccccc34)ccc(S(=O)(=O)O)c2c1" too.
Solution: > 100 µM

Exercise: Please give the result for NC(=O)c1cn(C2OC(CO)C(O)C2O)c(=O)[nH]c1=O (centres undefined) too.
Solution: > 100 µM

Exercise: Please give the result for "OC(CC(CC(O)(C(F)(F)F)C(F)(F)F)=NN=C(CC(O)(C(F)(F)F)C(F)(F)F)CC(O)(C(F)(F)F)C(F)(F)F)(C(F)(F)F)C(F)(F)F" too.
Solution: > 10 µM

Exercise: Please give the result for O=C(CN1CCN(c2cccc(Cl)c2)CC1)N1CCc2c([nH]c3ccccc23)C1c1cccnc1 (centres undefined) too.
Solution: > 100 µM

Exercise: Please give the result for "O=C(O)c1ccc(NCc2nc3cc(Cl)c(Cl)cc3[nH]2)cc1" too.
Solution: > 100 µM

Exercise: Please give the result for "COc1cc(/C=C/C(=O)c2ccccc2)cc(OC)c1OC" too.
Solution: 23 µM

Exercise: Please give the result for "COc1cc(-c2nn(-c3cccc(NC(=O)Nc4cccc(C(F)(F)F)c4)c3)cc2-c2ccncc2)ccc1Cl" too.
Solution: 14.5 µM

Exercise: Please give the result for "CCc1n[nH]c(=O)n1O" too.
Solution: > 100 µM

Exercise: Please give the result for "Cc1nc2c(=O)[nH]ncc2[nH]1" too.
Solution: > 100 µM

Exercise: Please give the result for "CC1=C(C(=O)CC(=O)C(=O)Nc2ccc(Cl)cc2C)Sc2ccccc2N1" too.
Solution: > 100 µM

Exercise: Please give the result for "COC(=O)/C=C1/SC(=Nc2ccc(F)cc2)N(CCc2c[nH]c3ccc(O)cc23)C1=O" too.
Solution: > 100 µM

Exercise: Please give the result for CC(C)N(C(C)C)[PH+]1O[PH+](N(C(C)C)C(C)C)O[PH+](N(C(C)C)C(C)C)O[PH+](N(C(C)C)C(C)C)O1.[C-]#[O+].[C-]#[O+].[C-]#[O+].[C-]#[O+].[C-]#[O+].[C-]#[O+].[C-]#[O+].[C-]#[O+].[Mo].[Mo] (centres undefined) too.
Solution: > 100 µM

Exercise: Please give the result for O=C1C=CC2(O)OC/C(=C\c3ccccc3)C(O)=C2C1=O (centres undefined) too.
Solution: 6.88 µM

Exercise: Please give the result for CSC1N=CNc2c1sc(=S)n2-c1ccccc1 (centres undefined) too.
Solution: > 100 µM

Exercise: Please give the result for Cc1ccccc1NC(=O)/C(=N/NC(=O)CC#N)C1C(=O)N(c2ccccc2)N=C1N (centres undefined) too.
Solution: > 100 µM

Exercise: Please give the result for O=[N+]([O-])c1ccc(C2CC(c3ccc(NCc4nc5ccccc5[nH]4)cc3)=NO2)cc1 (centres undefined) too.
Solution: > 100 µM

Exercise: Please give the result for CCC(N)(C(=O)O)C(C)C (centres undefined) too.
Solution: > 100 µM

Exercise: Please give the result for "Cc1c(C(=O)O)n2c(C)nnc2c2ccccc12" too.
Solution: > 100 µM

Exercise: Please give the result for "CCCCCCCCCCCC[C@@H](O)[C@H]1CC[C@H]([C@H]2CC[C@H]([C@H](O)CC[C@H](O)CCCCCCCC3=C[C@H](C)OC3=O)O2)O1" too.
Solution: 4.42 µM

Exercise: Please give the result for Nc1nc(N)c2ncn(CCCC(c3ccccc3)P(=O)(O)O)c2n1 (centres undefined) too.
Solution: > 100 µM

* * *

# Test system: BT-549 breast
# test_description: NCI tumour cell line growth inhibition, 48 h
measured_metric: TGI

Exercise: # input molecule: Cc1c2c(n(C)c1C)C(=O)C1C(C2=O)C2(C)c3ccccc3C1(C)c1ccccc12 (stereo not drawn) ; wanted: its TGI
Solution: > 100 µM

Exercise: Please give the result for "O=c1c(=O)c2cscc2c1=O" too.
Solution: 8.72 µM

Exercise: Please give the result for "Cn1c(-c2ccncc2)c(-c2ccc(F)cc2)c2ncccc21" too.
Solution: > 25 µM
